System: SW620
protocol.notes: Camptothecin drug cellular activity test (MTS cell proliferation)
Assay type: cell-based, human
measurement.setup: Homo sapiens, SW-620, 72 h; SW620, negative control cells, 3 days incubation, MTS; read-out: Cell Viability, SW620
measured.parameter: IC50 (nM)

* CC[C@@]1(O)C(=O)OCc2c1cc1n(c2=O)Cc2c-1nc1cc(F)c(C)c3c1c2[C@H](NC(=O)[C@H](O)C(F)(F)F)CC3 [Compound 12] | 0.06
* CC[C@@]1(O)C(=O)OCc2c1cc1n(c2=O)Cc2c-1nc1cc(F)c(C)c3c1c2[C@@H](NC(=O)[C@H](C)O)CC3 [Compound 2] | 10.4
* CC[C@@]1(O)C(=O)OCc2c1cc1n(c2=O)Cc2c-1nc1cc(F)c(C)c3c1c2[C@H](NC(=O)[C@@H](O)C(F)(F)F)CC3 [Compound 13] | 1.06
